biological target: Peptidylglycine alpha-amidating monooxygenase (Rattus norvegicus) (UniProt P14925); assay: Ratio of Vm(app) to Km(app) for rat recombinant peptidylglycine alpha-amidating monooxygenase
Sequence (P14925 whole entry): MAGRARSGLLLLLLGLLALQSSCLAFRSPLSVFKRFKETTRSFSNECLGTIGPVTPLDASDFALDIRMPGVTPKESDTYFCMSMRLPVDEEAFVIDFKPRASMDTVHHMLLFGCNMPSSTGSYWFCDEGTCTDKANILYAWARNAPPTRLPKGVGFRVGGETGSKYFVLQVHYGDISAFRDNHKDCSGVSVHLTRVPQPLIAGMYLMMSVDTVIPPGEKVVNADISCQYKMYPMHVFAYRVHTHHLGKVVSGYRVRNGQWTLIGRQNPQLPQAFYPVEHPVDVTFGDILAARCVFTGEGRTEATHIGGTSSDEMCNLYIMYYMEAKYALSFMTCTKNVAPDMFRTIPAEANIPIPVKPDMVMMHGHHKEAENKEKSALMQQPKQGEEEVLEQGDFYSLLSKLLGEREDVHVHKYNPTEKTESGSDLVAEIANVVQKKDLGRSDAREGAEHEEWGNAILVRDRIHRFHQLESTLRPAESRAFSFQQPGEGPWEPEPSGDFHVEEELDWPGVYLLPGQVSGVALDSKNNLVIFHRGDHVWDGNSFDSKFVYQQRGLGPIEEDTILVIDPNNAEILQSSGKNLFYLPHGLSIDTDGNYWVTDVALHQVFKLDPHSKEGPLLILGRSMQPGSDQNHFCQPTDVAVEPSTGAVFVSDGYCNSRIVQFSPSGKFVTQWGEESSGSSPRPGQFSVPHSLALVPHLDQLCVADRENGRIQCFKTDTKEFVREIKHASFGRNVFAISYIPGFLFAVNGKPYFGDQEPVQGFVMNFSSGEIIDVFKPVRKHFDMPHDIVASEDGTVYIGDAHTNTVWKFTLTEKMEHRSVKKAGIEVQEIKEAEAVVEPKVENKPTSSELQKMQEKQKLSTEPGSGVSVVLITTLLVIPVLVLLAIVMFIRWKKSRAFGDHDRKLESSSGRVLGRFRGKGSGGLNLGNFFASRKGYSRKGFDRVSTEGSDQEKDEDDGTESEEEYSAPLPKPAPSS
Let's look at some compounds and their measured Ratio.
# value in ×10³ /M/s; strip the unit string

Example cases with answers are listed next.
>  <Structure string>
Cc1cccc(C(=O)NCC(=O)O)c1

>  <Tgt>
Peptidylglycine alpha-amidating monooxygenase (Rattus norvegicus) (UniProt P14925)

>  <Readout unit>
×10³ /M/s

>  <Observed measurement>
4.7

$$$$
>  <Structure string>
O=C(O)CNC(=O)c1ccc([N+](=O)[O-])cc1

>  <Tgt>
Peptidylglycine alpha-amidating monooxygenase (Rattus norvegicus) (UniProt P14925)

>  <Readout unit>
×10³ /M/s

>  <Observed measurement>
8.9

$$$$
>  <Structure string>
O=C(O)CNC(=O)c1ccccc1O

>  <Tgt>
Peptidylglycine alpha-amidating monooxygenase (Rattus norvegicus) (UniProt P14925)

>  <Readout unit>
×10³ /M/s

>  <Observed measurement>
7.1

$$$$
>  <Structure string>
O=C(O)CNC(=O)/C=C/c1ccco1

>  <Tgt>
Peptidylglycine alpha-amidating monooxygenase (Rattus norvegicus) (UniProt P14925)

>  <Readout unit>
×10³ /M/s

>  <Observed measurement>
2.8

$$$$

Now turn to the next compound.
Reported Ratio, compound CCc1ccc(C(=O)NCC(=O)O)cc1 : ____
3.1

Entry source: ChEMBL document CHEMBL1151692
